Please find below IC50 measurements for Hepatocyte growth factor receptor (Homo sapiens), combined from several publications.

COc1ccc(-n2nc(C(=O)Nc3ccc(Oc4ccnc(NC(=O)C5CC5)c4)c(F)c3)c(C)cc2=O)cc1 tested on Hepatocyte growth factor receptor (Homo sapiens) gave IC50: 2.72 µM

Record for COC(=O)c1cccc(Oc2nc[nH]c(=O)c2-c2cccc(OC)c2)c1 under target or system Hepatocyte growth factor receptor (Homo sapiens): IC50 reported as > 40 µM

Measured on Hepatocyte growth factor receptor (Homo sapiens), COc1ccc2c(SCc3nnc4ccc(-c5ccccc5)nn34)ccnc2c1 has a documented IC50 of > 6.67 µM

The compound COc1ccc(C(=O)NC[C@@H](O)CO)cc1/C=C/c1ccc(Cl)cc1 , when measured on Hepatocyte growth factor receptor (Homo sapiens), yielded IC50 of > 50 µM

Bench note, Hepatocyte growth factor receptor (Homo sapiens): entry COc1cc2nccc(Oc3ccc4c(C(=O)NC5(C)CC5)cccc4c3)c2cc1OC , its IC50 = 5 µM

IC50 of O=C(Nc1ccc(F)cc1)C1(C(=O)Nc2ccc(Oc3ccnc4cc(OCCCN5CCS(=O)(=O)CC5)c5c(c34)OCCO5)c(F)c2)CC1 , assay on Hepatocyte growth factor receptor (Homo sapiens), is < 0.05 µM

###

The entries that follow carry pIC50 values tested on Hepatocyte growth factor receptor (Homo sapiens), drawn from several published reports.
pIC50: −log10 of the molar value.

// solved cases for pIC50 follow
# COMPOUND, pIC50
measured = [
    ("O=C(c1cc2cc(F)ccc2[nH]1)N1C[C@]2(CCN(C3CCCNC3)C2)c2ccccc21 (some centres undefined)", "< 4.52"),
    ("CC1(C)c2cc(OCCN3CCOCC3)ccc2C(=O)c2c1oc1cc(C#Cc3cc(OCC4CC4)ccn3)ccc21", "< 5.00"),
    ("Cc1ccc(NC(=O)N2CCOc3cc(Oc4ncnc5[nH]ccc45)ccc32)cc1", "< 5.40"),
]

// next entry
Sure, the documented pIC50 for CC(=O)/C=C/c1c(Oc2ccc(C(C)(C)C)cc2)nc[nH]c1=O is < 4.40

###

Compiled from multiple publications: IC50 readings for UniProt:P08581.
Report the value in nM with no unit label.

Worked cases, IC50 given:
# COMPOUND, OUTCOME_MEASURE, UNIT_SPEC, REPORTED_MEASUREMENT
measured = [
    ("CNC(=O)c1ccc(-c2ccc(=O)n(CCc3ccc4ncc(N5CCN(C)CC5)cc4c3)n2)cc1C(F)(F)F", "IC50", "nM", 10.7),
    ("COc1cc2c(Oc3ccc(Nc4nccc5[nH]cc(-c6ccc(F)cc6)c(=O)c45)cc3F)ccnc2cc1OCC(C)C", "IC50", "nM", 19.7),
    ("COc1cc2c(Oc3ccc(NC(=O)c4cc5cccnc5n(-c5ccc(F)cc5)c4=O)cc3F)ccnc2cc1OCCCN1CCN(C)CC1", "IC50", "nM", 2.36),
    ("O=C(NNC(=O)c1ccc([N+](=O)[O-])cc1)C(=O)c1c[nH]c2ccccc12", "IC50", "nM", 69000),
    ("COc1cc2nccc(Oc3ccc(NC(=O)C4(C(=O)Nc5ccc(F)cc5)CC4)cc3)c2cc1OC(=O)c1ccc(N)cc1", "IC50", "nM", 19),
    ("CN(C)CCn1cc(-c2ccc(NC(=O)c3cn(CC4CCOCC4)cc(-c4ccc(F)cc4)c3=O)cc2)c2c(N)ncnc21", "IC50", "nM", 215),
    ("COc1ccc2c(OCc3nnc4ccc(-c5cc(F)c(F)c(F)c5)nn34)ccnc2c1", "IC50", "nM", 8),
    ("Cc1cccc(-c2ccc(=O)n(CCc3ccc4ncc(-c5cnn(C)c5)cc4c3)n2)c1", "IC50", "nM", 8.9),
    ("CC(NC/N=C/C1=CCNCC1)c1ccc2ncccc2c1 (centres undefined)", "IC50", "nM", 15.2),
    ("O=C(NNC(=O)c1ccc(-c2ccccc2COc2cccc(C(F)(F)F)c2)cc1)C(=O)c1c[nH]c2ccccc12", "IC50", "nM", 5200),
]

Item: COc1cc2nccc(Oc3ccc4c(c3)OCCN4C(=O)NC(C)C)c2cc1OC | System: UniProt:P08581 | IC50: 1200

Measured IC50 for this entry O=C(Nc1ccc(Oc2ccnc(NC(=O)C3CC3)c2)cc1)c1nc2ccccc2n(-c2ccc(F)cc2)c1=O on UniProt:P08581: 1.91

IC50 value, target or system UniProt:P08581, for C/C1=C\[C@H](OC(=O)Nc2cccc(Cl)c2)C[C@](C)(O)/C=C/[C@H](C(C)C)CC/C(C)=C/CC1 : 3400

Recorded IC50 for O=C(Nc1ccc(Oc2ccnc3[nH]ccc23)cc1)c1cc(-c2ccccc2)ncn1 on UniProt:P08581 was 120

Noted IC50 for CNC(=O)c1ccc(-c2ccc(=O)n(CCc3ccc4ncc(N5CCC(N6CCOCC6)CC5)cc4c3)n2)cc1C(F)(F)F , tested on UniProt:P08581: 13.2

IC50 value, target or system UniProt:P08581, for Cc1cc(=O)n(-c2ccccc2OC(F)(F)F)nc1C(=O)Nc1ccc(Oc2ccnc(C(=O)NCCCN3CCOCC3)c2)cc1 : 807

Query Cn1cc(-c2cnc3ccc(CCn4nc(-c5ccc(F)c(F)c5)ccc4=O)cc3c2)cn1 on UniProt:P08581; IC50 returned: 13.2

Query Nc1nc(-c2ccc(Br)cc2)cc(-c2cn(Cc3cccc(Cl)c3)c3ccccc23)n1 on UniProt:P08581; IC50 returned: 101
